readout-label: melting point

Looking up CCOCc1nc2c(N)nc3cccnc3c2n1NC1CCOCC1 [Example 37] , I found its melting point recorded as 191 to 193 °C

Kindly note the recorded melting point for CCc1nc2c(N)nc(C)c(C)c2n1NC1CCOCC1 [Example 48] , which is 191 to 193 °C

The reported melting point of the compound CCOCc1nc2c(N)nc(C)c(C)c2n1NCc1ccccc1 [Example 21] was 149 to 151 °C

For reference, reported melting point for Cc1nc(N)c2nc(CO)n(NC(C)C)c2c1C [Example 12] stands at 257 to 259 °C

melting point measured on CCOCc1nc2c(N)nc(C)c(C)c2n1N(C)C [Example 9] = 170 to 171 °C

Just so you know, measured melting point for CCOCc1nc2c(N)nc(C)c(C)c2n1NCc1ccc(Cl)c(Cl)c1 [Example 45] came out at 186 to 188 °C

The recorded melting point for CCOCc1nc2c(N)nc(C)c(C)c2n1NCc1cccnc1 [Example 19] is 147 to 149 °C

The reported melting point of the compound COCCc1nc2c(N)nc(C)c(C)c2n1NC1CCOCC1 [Example 51] was 110 to 120 °C

Notebook: CCOCc1nc2c(N)nc(C)c(C)c2n1NC1CCCC1 [Example 46] , melting point read as 130 to 132 °C

Record CCOCc1nc2c(N)nc(C)c(C)c2n1NCCCNC(=O)OCC [Example 49] . Reported melting point: 148 to 150 °C
